Each recorded value in this set is attributed to the RNAGym collection of RNA variant scans (doi:10.7554/elife.90254).

B1: OR4K15 (parent)
chain: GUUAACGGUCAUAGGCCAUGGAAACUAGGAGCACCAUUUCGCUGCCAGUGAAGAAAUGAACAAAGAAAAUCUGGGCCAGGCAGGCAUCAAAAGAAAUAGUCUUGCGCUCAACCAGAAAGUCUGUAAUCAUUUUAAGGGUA

Variants of: B1
experiment-notes: self-cleavage, relative activity (ratio to wild type); higher = more cleavage; in vitro, sequencing; the parent is a self-cleaving ribozyme
Given measured self-cleavage, output yes (1) if it is greater than or equal to 0.6 and no (0) if not.

Determine whether this variant has self-cleavage no lower than 0.6: GUUAACGGUCAUAGGCCAUGGAAACUAGGAGCACCAUUUCGCUGCCAGUGAAGAAAAGAACAAAGAAACUCUGGGCCAGGCAGGCAUCAAAAGAAAUAGUCUUGCGCUCAACCAGAAAGUCUGUAAUCAUUUUAAGGGUA [U57A A69C]
no (0)

Does the variant GUUAACGGUCAUAGGCCAUGGAAACUAGGAGCACCAUUUCGCUGCCAGUGAAGAAAUGAACAAAGAAAACCUGGGCCAGGCAGGCAUCAAAAGAAAUAGACUUGCGCUCAACCAGAAAGUCUGUAAUCAUUUUAAGGGUA [U70C U100A] have recorded self-cleavage that is 0.6 or more?
no (0)

Check this variant for self-cleavage at or above 0.6: GUUAACGGUCAUAGGCCAUGGAAACUAGGAGCACCAUUUCGCUGCCAGUGAAGAAAUGAACAAAGAAAAUCUGGGCCAGGCAGGCAUCAAAAGAAAUAGUCUUGCGCUCAACCAGAAAGUCUGUAACCAUUUAAAGGGUA [U127C U133A]
yes (1)
